# test.details: Pharmacokinetics of intraperitoneal or intravenous injection in CD1 mice (plasma, LC/MS/MS)
# Assay type: in vivo
# experimental.conditions: male, CD1, mouse, plasma, iv, 1 mg/kg, IV 1.0 mg/kg, 0.5 h, read-out: Conc. Mean
endpoint.name: concentration at 0.5 h (ng/mL)
Respond with the bare value in ng/mL.

Req: Look up concentration at 0.5 h for this compound: COc1cc2c(Oc3ccc(NC(=O)C4(C(=O)Nc5ccc(F)cc5)CC4)cc3F)ccnc2cc1OCCCOCCCOCCC(=O)N[C@H](C(=O)N1C[C@H](O)C[C@H]1C(=O)NCc1ccc(-c2scnc2C)cc1)C(C)(C)C
Resp: 397
